Molecular target: UreG (Helicobacter pylori, UniProt Q09066)
Sequence (Q09066 whole entry): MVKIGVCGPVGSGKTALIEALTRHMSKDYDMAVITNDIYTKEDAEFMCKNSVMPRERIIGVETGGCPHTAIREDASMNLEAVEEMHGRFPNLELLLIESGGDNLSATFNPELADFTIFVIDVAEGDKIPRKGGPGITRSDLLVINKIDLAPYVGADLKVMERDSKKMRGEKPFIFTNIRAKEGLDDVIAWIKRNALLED
reported_endpoint: Kd (µM)

compound: O=C(Cn1c2ccccc2c(=O)c2ccccc21)N/N=C/c1cc([N+](=O)[O-])ccc1N1CCCCCC1 [cmpd8]
result_number: 7.5
--
compound: Cc1cccc(N2CCN(C(=O)c3cc(S(=O)(=O)N(C)C)ccc3N3CCCC3)CC2)c1C [cmpd4]
result_number: 10.6

---

Biological target: H. pylori urease (Helicobacter pylori, UniProt P14916+P69996)
Sequence (P69996 whole entry): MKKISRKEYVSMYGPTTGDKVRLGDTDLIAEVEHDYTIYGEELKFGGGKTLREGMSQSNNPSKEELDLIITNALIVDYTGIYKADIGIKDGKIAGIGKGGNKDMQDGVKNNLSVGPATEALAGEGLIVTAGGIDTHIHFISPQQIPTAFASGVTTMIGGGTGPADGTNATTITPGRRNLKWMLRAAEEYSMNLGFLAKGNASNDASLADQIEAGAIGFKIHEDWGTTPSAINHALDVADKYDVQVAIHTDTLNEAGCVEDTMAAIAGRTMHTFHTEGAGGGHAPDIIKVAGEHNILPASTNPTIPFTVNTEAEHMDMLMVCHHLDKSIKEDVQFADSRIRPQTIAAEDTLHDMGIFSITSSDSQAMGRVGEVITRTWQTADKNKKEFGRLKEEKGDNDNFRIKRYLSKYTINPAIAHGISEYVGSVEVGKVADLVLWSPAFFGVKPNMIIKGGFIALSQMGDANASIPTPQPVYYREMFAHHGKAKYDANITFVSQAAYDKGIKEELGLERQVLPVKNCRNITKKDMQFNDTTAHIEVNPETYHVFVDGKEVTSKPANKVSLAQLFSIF
Sequence (P14916 whole entry): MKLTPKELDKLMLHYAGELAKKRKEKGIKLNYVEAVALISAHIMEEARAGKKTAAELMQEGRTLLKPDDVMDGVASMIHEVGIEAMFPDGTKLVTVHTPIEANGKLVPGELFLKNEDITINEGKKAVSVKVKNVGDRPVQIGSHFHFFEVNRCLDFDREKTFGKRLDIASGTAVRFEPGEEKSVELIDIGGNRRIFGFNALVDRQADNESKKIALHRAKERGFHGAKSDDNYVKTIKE
Details: AHA incubated with extracted urease; ± SD

compound: CC(=O)NO [AHA, acetohydroxamic acid]
tested_target: H. pylori urease (Helicobacter pylori, UniProt P14916+P69996)
IC50: 1320 µM

---

Each record here notes measured pIC50.
Biological target: UreG (Helicobacter pylori)
pIC50: −log10 of the molar value.

smiles_entry: O=C(Cn1c2ccccc2c(=O)c2ccccc21)N/N=C/c1cc([N+](=O)[O-])ccc1N1CCCCCC1
pIC50: 4.88
--
smiles_entry: Cc1cccc(N2CCN(C(=O)c3cc(S(=O)(=O)N(C)C)ccc3N3CCCC3)CC2)c1C
pIC50: 4.77
